# experimentNotes: self-splicing fitness, log relative to wild type (ln ratio); higher = more splicing; Tetrahymena group I intron in knt gene, E. coli kanamycin selection, DiMSum; sequences stand for … in CUCUCU…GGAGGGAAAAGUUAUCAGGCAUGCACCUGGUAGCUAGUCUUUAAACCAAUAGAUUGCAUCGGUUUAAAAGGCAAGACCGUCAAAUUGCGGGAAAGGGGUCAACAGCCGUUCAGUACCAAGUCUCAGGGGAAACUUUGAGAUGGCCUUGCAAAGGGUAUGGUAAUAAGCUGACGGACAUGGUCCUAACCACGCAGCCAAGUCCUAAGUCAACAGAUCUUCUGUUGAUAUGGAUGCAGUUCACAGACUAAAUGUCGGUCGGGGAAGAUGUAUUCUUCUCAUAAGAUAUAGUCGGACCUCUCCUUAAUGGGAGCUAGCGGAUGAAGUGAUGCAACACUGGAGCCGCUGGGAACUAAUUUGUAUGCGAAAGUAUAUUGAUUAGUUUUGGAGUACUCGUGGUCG;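 note: selection with 25 µg/mL kanamycin versus none on LB agar overnight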
# measurementContext: 30 °C
endpoint: self-splicing fitness (ln)

Recorded results for 2 sequences are shown here.
CGCCAGCAAUAUUACGAUGG	-3.09
UAACAGCAAUAUUACGAAUU	-3.02

Attention now turns to another entry.
Sample AUAUAGCAAUAUUACGUAUU ; self-splicing fitness (ln) observed: -2.94
